# study-system: HLA-C*12:03
# method-summary: IEDB peptide-MHC binding, purified MHC/direct/fluorescence; filed as Kd, often an IC50 or EC50 that approximates it; bounds were set here for any values at or beyond the usual limits of such assays
# cond: source organism: Yersinia pestis Nepal516
measured-endpoint: pKd
// pKd here means minus log10 of the molar concentration (mol/L)

Query: For the sequence `YRYCHQLAL` , what pKd is on record?
Result: 6.69

----------
# study-system: HLA-A*29:02
# method-summary: IEDB peptide-MHC binding, purified MHC/competitive/radioactivity; filed as Kd, often an IC50 or EC50 that approximates it; bounds were set here for any values at or beyond the usual limits of such assays
# cond: source organism: Lassa virus Josiah
measured-endpoint: pKd
// pKd here means minus log10 of the molar concentration (mol/L)

Query: For the sequence `LISIFLHLV` , what pKd is on record?
Result: 4.93

----------
# study-system: HLA-A*02:03
# method-summary: IEDB peptide-MHC binding, purified MHC/competitive/radioactivity; filed as Kd, often an IC50 or EC50 that approximates it; bounds were set here for any values at or beyond the usual limits of such assays
# cond: source organism: Mammarenavirus guanaritoense
measured-endpoint: pKd
// pKd here means minus log10 of the molar concentration (mol/L)

Query: For the sequence `CNYTRFWYI` , what pKd is on record?
Result: 5.27

----------
# study-system: HLA-B*35:01
# method-summary: IEDB peptide-MHC binding, purified MHC/competitive/radioactivity; filed as Kd, often an IC50 or EC50 that approximates it; bounds were set here for any values at or beyond the usual limits of such assays
# cond: source organism: Dengue virus 1 Brazil/97-11/1997
measured-endpoint: pKd
// pKd here means minus log10 of the molar concentration (mol/L)

Query: For the sequence `FTMAHRKPTY` , what pKd is on record?
Result: 6.16

----------
# study-system: HLA-A*02:03
# method-summary: IEDB peptide-MHC binding, purified MHC/direct/fluorescence; filed as Kd, often an IC50 or EC50 that approximates it; bounds were set here for any values at or beyond the usual limits of such assays
# cond: source organism: Vibrio vulnificus CMCP6
measured-endpoint: Kd

Query: For the sequence `MPIAAAIGT` , what Kd is on record?
Result: ≥ 20 µM

----------
# study-system: HLA-B*15:09
# method-summary: IEDB peptide-MHC binding, purified MHC/direct/fluorescence; filed as Kd, often an IC50 or EC50 that approximates it; bounds were set here for any values at or beyond the usual limits of such assays
# cond: source organism: Francisella tularensis subsp. tularensis FSC033
pKd: −log10 of the molar value.
measured-endpoint: pKd

Query: What value of pKd on HLA-B*15:09 does `RYSNFAWYF` have?
Result: ≤ 4.70

----------
# study-system: HLA-A*68:01
# method-summary: IEDB peptide-MHC binding, purified MHC/competitive/radioactivity; filed as Kd, often an IC50 or EC50 that approximates it; bounds were set here for any values at or beyond the usual limits of such assays
# cond: source organism: Lassa virus Josiah
measured-endpoint: pKd
// pKd here means minus log10 of the molar concentration (mol/L)

Query: What value of pKd on HLA-A*68:01 does `TLTNTSIINH` have?
Result: 4.88

----------
# study-system: HLA-B*46:01
# method-summary: IEDB peptide-MHC binding, purified MHC/competitive/fluorescence; filed as Kd, often an IC50 or EC50 that approximates it; bounds were set here for any values at or beyond the usual limits of such assays
# cond: source organism: Coxiella burnetii RSA 331
pKd: −log10 of the molar value.
measured-endpoint: pKd

Query: What value of pKd on HLA-B*46:01 does `HMNKLPLAK` have?
Result: ≤ 4.70

# credit: the Immune Epitope Database (IEDB)
